Target: T1, Cdc25, P04821
T1 sequence (P04821 50-136, looked up): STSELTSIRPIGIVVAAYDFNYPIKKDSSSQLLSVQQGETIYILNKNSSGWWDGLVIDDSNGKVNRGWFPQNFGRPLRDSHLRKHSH
Assay: SPOT array
Conditions: median of control spots 969
QUANTITY NAME: SPOT intensity
Answers are plain numbers.

HHNRRKPLEVYFKAT 10

The following binders each have a reported value; give each one's SPOT intensity.
1. NPLPKEPRLPKRKVA
2. TTAPALPSLPPPPLL
3. NQARKPFLLPATELS
4. TKIRRRPQQPLTDFT
5. ANNQGPPNLPARDKS

Result string:
1. 22
2. 0
3. 16
4. 27
5. 0

Value of SPOT intensity reported for the binder `EAEEAAPQLPSRSSA` is 2
